Collected Weight change rate, Day 22 values appear next to each entry.
settings: Day 22; G3-G9 groups; single IP dose; Mean±SEM

>  <compound>
CC(C)(C)OC(=O)Nc1ccn([C@@H]2O[C@H](COC(=O)Cn3cnc([N+](=O)[O-])c3)[C@@H](O)C2(F)F)c(=O)n1 [Compound G9]

>  <Weight change rate, Day 22 [%]>
8.18

$$$$
>  <compound>
CC(C)(C)OC(=O)Nc1ccn([C@@H]2O[C@H](CO)[C@@H](O)C2(F)F)c(=O)n1 [Compound G3]

>  <Weight change rate, Day 22 [%]>
3.33

$$$$
>  <compound>
CCCCOC(=O)Nc1nc(=O)n([C@@H]2O[C@H](CO)[C@@H](O)C2(F)F)cc1Br [Compound G6]

>  <Weight change rate, Day 22 [%]>
6.22

$$$$
>  <compound>
O=C(Nc1ccn([C@@H]2O[C@H](CO)[C@@H](O)C2(F)F)c(=O)n1)OCc1ccccc1 [Compound G4]

>  <Weight change rate, Day 22 [%]>
11.39

$$$$
>  <compound>
O=C(Nc1ccn([C@@H]2O[C@H](CO)[C@@H](O)C2(F)F)c(=O)n1)OCc1ccc([N+](=O)[O-])cc1 [Compound G5]

>  <Weight change rate, Day 22 [%]>
10.41

$$$$
>  <compound>
O=C(Nc1nc(=O)n([C@@H]2O[C@H](CO)[C@@H](O)C2(F)F)cc1Br)OCc1ccccc1 [Compound G7]

>  <Weight change rate, Day 22 [%]>
4.65

$$$$

###

conditions: Day 11; G3-G9 groups; single IP dose; Mean±SEM

>  <compound.structure.string>
CC(C)(C)OC(=O)Nc1ccn([C@@H]2O[C@H](CO)[C@@H](O)C2(F)F)c(=O)n1

>  <Weight change rate, Day 11 / %>
4.67

$$$$
>  <compound.structure.string>
O=C(Nc1nc(=O)n([C@@H]2O[C@H](CO)[C@@H](O)C2(F)F)cc1Br)OCc1ccccc1

>  <Weight change rate, Day 11 / %>
1.86

$$$$
>  <compound.structure.string>
O=C(Nc1ccn([C@@H]2O[C@H](CO)[C@@H](O)C2(F)F)c(=O)n1)OCc1ccc([N+](=O)[O-])cc1

>  <Weight change rate, Day 11 / %>
4.96

$$$$
>  <compound.structure.string>
O=C(Nc1ccn([C@@H]2O[C@H](CO)[C@@H](O)C2(F)F)c(=O)n1)OCc1ccccc1

>  <Weight change rate, Day 11 / %>
3.85

$$$$
>  <compound.structure.string>
CCCCOC(=O)Nc1nc(=O)n([C@@H]2O[C@H](CO)[C@@H](O)C2(F)F)cc1Br

>  <Weight change rate, Day 11 / %>
6.22

$$$$
>  <compound.structure.string>
CC(C)(C)OC(=O)Nc1ccn([C@@H]2O[C@H](COC(=O)Cn3cnc([N+](=O)[O-])c3)[C@@H](O)C2(F)F)c(=O)n1

>  <Weight change rate, Day 11 / %>
5.18

$$$$

###

tested on: HCT-116 colon cancer xenografts; test: Tumor growth inhibition of HCT-116 colon cancer xenografts in tumor-bearing nude mice (tumor volume, TGI %, RTV, T/C %); type: in vivo, Balb/c Nude mice; details: Day 9; G10-G16 groups; single IP 400 mg/kg; Mean±SEM

>  <molecule>
CCCCOC(=O)Nc1nc(=O)n(C2OC(COC(=O)COc3nc(Cl)c(Cl)cc3Cl)C(O)C2(F)F)cc1I (stereo not drawn)

>  <target.under.test>
HCT-116 colon cancer xenografts

>  <Day 9 (RTV)>
5.21

$$$$
>  <molecule>
O=C(COc1nc(Cl)c(Cl)cc1Cl)OCC1OC(n2cc(-c3cn(Cc4ccccc4)nn3)c(NC(=O)OCc3ccc([N+](=O)[O-])cc3)nc2=O)C(F)(F)C1O (stereo not drawn)

>  <target.under.test>
HCT-116 colon cancer xenografts

>  <Day 9 (RTV)>
4.07

$$$$
>  <molecule>
CCCCOC(=O)Nc1nc(=O)n([C@@H]2O[C@H](COC(=O)Cn3cnc([N+](=O)[O-])c3)C(O)C2(F)F)cc1I (stereo partly drawn)

>  <target.under.test>
HCT-116 colon cancer xenografts

>  <Day 9 (RTV)>
4.37

$$$$
>  <molecule>
CCCCOC(=O)Nc1nc(=O)n(C2OC(COC(=O)COc3nc(Cl)c(Cl)cc3Cl)C(O)C2(F)F)cc1-c1cn(Cc2ccccc2)nn1 (stereo not drawn)

>  <target.under.test>
HCT-116 colon cancer xenografts

>  <Day 9 (RTV)>
0.77

$$$$
>  <molecule>
O=C(COc1nc(Cl)c(Cl)cc1Cl)OC[C@H]1O[C@@H](n2cc(Br)c(NC(=O)OCc3ccccc3)nc2=O)C(F)(F)C1O (stereo partly drawn)

>  <target.under.test>
HCT-116 colon cancer xenografts

>  <Day 9 (RTV)>
4.84

$$$$
>  <molecule>
CCCCOC(=O)Nc1nc(=O)n(C2OC(COC(=O)COc3nc(Cl)c(Cl)cc3Cl)C(O)C2(F)F)cc1Br (stereo not drawn)

>  <target.under.test>
HCT-116 colon cancer xenografts

>  <Day 9 (RTV)>
8.09

$$$$
